- test-target: Mdm2/p53 binding (GST-Mdm2 / His-p53) (Homo sapiens, UniProt Q00987, L33E)
- Construct: Mdm2 partial protein having Mdm2 amino acids at positions 25 to 108
- Sequence (Q00987 25-108 L33E): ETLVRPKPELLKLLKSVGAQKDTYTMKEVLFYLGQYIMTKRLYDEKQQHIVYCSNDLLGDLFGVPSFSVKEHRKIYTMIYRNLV
- assay-notes: Mdm2/p53 binding assay (HTRF, His-p53 and GST-Mdm2)
- measurement-parameters: His-p53 (aa 1-132) and GST-Mdm2 (aa 25-108, L33E) 6.25 nM each; 25°C, 1 hour; values given as ranges
pIC50: −log10 of the molar value.
pIC50 overview

>  <compound>
CC1(C)CCC2(CC1)N[C@@H](C(=O)N[C@H]1CC[C@H](c3nnco3)CC1)[C@H](c1ccnc(Cl)c1F)[C@]21C(=O)Nc2cc(Cl)ccc21 (relative stereo) [Example 18]

>  <readout-kind>
pIC50

>  <obs-value>
7.00 to 7.30

$$$$

query: Suppose we examine the compound CC1(C)CCC2(CC1)N[C@@H](C(=O)N[C@H]1CC[C@H](c3nnc(CO)o3)CC1)[C@H](c1ccnc(Cl)c1F)[C@]21C(=O)Nc2cc(Cl)ccc21 [Example 130] ; what pIC50 value has been reported?
result: 7.30 to 9.00

query: Suppose we examine the compound CC1(C)CCC2(CC1)N[C@@H](C(=O)N[C@@H]1CC[C@@H](C(=O)N3CC(O)C3)OC1)[C@H](c1ccnc(Cl)c1F)[C@]21C(=O)Nc2cc(Cl)ccc21 [Example 107] ; what pIC50 value has been reported?
result: 7.30 to 9.00

query: Suppose we examine the compound CO[C@@H]1C[C@@H](NC(=O)[C@@H]2NC3(CC(CF)(CF)C3)[C@@]3(C(=O)Nc4cc(Cl)ccc43)[C@H]2c2cccc(Cl)c2F)CO[C@@H]1CO [Example 129] ; what pIC50 value has been reported?
result: 7.30 to 9.00

query: Suppose we examine the compound CC1(C)CCC2(CC1)N[C@@H](C(=O)N[C@H]1CC[C@H](O)CC1)[C@H](c1ccnc(Cl)c1F)[C@]21C(=O)Nc2cc(Cl)ccc21 (relative stereo) [Example 16] ; what pIC50 value has been reported?
result: 7.30 to 9.00

---

- test-target: Mdm2/p53 binding (GST-Mdm2 / His-p53) (Homo sapiens, UniProt Q00987, L33E)
- Construct: Mdm2 partial protein having Mdm2 amino acids at positions 25 to 108
- assay-notes: Mdm2/p53 binding assay (HTRF, His-p53 and GST-Mdm2)
- measurement-parameters: His-p53 (aa 1-132) and GST-Mdm2 (aa 25-108, L33E) 6.25 nM each; 25°C, 1 hour; values given as ranges
pIC50: −log10 of the molar value.
readout-kind: pIC50

Known results for molecules:
>  <molecule>
CC1(C)CCC2(CC1)N[C@@H](C(=O)N[C@H]1CO[C@H](CO)[C@@H](O)C1)[C@H](c1cccc(Cl)c1F)[C@]21C(=O)Nc2nc(Cl)ccc21 [Example 30]

>  <pIC50>
7.30 to 9.00

$$$$
>  <molecule>
C[C@@H](O)[C@@H]1CC[C@@H](NC(=O)[C@@H]2NC3(CC(CF)(CF)C3)[C@@]3(C(=O)Nc4cc(Cl)ccc43)[C@H]2c2ccnc(Cl)c2F)CO1 [Example 170]

>  <pIC50>
7.00 to 7.30

$$$$

Field: next molecule
query: Suppose we examine the molecule CC1(C)CCC2(CC1)N[C@@H](C(=O)N[C@@H]1CC[C@@H](c3ncon3)OC1)[C@H](c1ccnc(Cl)c1F)[C@]21C(=O)Nc2cc(Cl)ccc21 [Example 64] ; what pIC50 value has been reported?
result: 7.00 to 7.30
